# SYSTEM NAME: UniProt O60674
# Sequence (O60674 849-1124): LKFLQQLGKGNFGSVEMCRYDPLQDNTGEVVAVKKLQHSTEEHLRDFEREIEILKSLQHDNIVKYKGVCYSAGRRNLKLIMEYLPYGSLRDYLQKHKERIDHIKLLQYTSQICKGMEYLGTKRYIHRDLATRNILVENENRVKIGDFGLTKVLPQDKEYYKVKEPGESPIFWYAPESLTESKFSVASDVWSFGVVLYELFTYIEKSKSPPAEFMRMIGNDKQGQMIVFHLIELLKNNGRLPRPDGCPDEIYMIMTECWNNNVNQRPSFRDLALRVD
# METHOD SUMMARY: Purified kinase assay (Z'-LYTE), JAK2
# Format: biochemical
# CONDITION CONTEXT: Table 1; read-out: JAK2 IC50
IC50 values for the compounds below.

Consider the worked cases shown below.
CC(=O)N1CCN(c2ccc(Nc3cc(NC4(c5ccccc5)CC4)c(C(N)=O)nn3)cc2)CC1 > 1 µM
CC(=O)N1CCN(c2ccc(Nc3cc(NCc4ccccn4)c(C(N)=O)nn3)cc2)CC1 > 1 µM

Enquiry: Determine its reported IC50: `CS(=O)(=O)CCc1ccc(Nc2cc(NCc3cccc(F)c3)c(C(N)=O)nn2)cc1`
Return: 0.1 to 1 µM

meta.source: patent US9834548B2
